Experiment Notes: Volume of distribution in rat
Type: ADME, organism-based
Experimental Conditions: in vivo
Quantity Kind: Vd (L/kg)
Answers are plain numbers, in L/kg.

Lab note: `Cc1cc(C(N)=O)nn1-c1cccc(-c2ccc(C(F)(F)F)cc2C(F)(F)F)c1` gave Vd of 3.1

###

Experiment Notes: Oral bioavailability in rat
Format: ADME, organism-based
Experimental Conditions: in vivo
Quantity Kind: bioavailability (%)
Numbers only, in %.

For `Cc1cc(C(N)=O)nn1-c1cccc(-c2ccc(C(F)(F)F)cc2C(F)(F)F)c1` the compound record lists bioavailability as 55

###

Can you tell me IC50 for the items I'm about to list?
Tgt: Sodium channel protein type 9 subunit alpha (Homo sapiens)
Sequence (Q15858 whole entry): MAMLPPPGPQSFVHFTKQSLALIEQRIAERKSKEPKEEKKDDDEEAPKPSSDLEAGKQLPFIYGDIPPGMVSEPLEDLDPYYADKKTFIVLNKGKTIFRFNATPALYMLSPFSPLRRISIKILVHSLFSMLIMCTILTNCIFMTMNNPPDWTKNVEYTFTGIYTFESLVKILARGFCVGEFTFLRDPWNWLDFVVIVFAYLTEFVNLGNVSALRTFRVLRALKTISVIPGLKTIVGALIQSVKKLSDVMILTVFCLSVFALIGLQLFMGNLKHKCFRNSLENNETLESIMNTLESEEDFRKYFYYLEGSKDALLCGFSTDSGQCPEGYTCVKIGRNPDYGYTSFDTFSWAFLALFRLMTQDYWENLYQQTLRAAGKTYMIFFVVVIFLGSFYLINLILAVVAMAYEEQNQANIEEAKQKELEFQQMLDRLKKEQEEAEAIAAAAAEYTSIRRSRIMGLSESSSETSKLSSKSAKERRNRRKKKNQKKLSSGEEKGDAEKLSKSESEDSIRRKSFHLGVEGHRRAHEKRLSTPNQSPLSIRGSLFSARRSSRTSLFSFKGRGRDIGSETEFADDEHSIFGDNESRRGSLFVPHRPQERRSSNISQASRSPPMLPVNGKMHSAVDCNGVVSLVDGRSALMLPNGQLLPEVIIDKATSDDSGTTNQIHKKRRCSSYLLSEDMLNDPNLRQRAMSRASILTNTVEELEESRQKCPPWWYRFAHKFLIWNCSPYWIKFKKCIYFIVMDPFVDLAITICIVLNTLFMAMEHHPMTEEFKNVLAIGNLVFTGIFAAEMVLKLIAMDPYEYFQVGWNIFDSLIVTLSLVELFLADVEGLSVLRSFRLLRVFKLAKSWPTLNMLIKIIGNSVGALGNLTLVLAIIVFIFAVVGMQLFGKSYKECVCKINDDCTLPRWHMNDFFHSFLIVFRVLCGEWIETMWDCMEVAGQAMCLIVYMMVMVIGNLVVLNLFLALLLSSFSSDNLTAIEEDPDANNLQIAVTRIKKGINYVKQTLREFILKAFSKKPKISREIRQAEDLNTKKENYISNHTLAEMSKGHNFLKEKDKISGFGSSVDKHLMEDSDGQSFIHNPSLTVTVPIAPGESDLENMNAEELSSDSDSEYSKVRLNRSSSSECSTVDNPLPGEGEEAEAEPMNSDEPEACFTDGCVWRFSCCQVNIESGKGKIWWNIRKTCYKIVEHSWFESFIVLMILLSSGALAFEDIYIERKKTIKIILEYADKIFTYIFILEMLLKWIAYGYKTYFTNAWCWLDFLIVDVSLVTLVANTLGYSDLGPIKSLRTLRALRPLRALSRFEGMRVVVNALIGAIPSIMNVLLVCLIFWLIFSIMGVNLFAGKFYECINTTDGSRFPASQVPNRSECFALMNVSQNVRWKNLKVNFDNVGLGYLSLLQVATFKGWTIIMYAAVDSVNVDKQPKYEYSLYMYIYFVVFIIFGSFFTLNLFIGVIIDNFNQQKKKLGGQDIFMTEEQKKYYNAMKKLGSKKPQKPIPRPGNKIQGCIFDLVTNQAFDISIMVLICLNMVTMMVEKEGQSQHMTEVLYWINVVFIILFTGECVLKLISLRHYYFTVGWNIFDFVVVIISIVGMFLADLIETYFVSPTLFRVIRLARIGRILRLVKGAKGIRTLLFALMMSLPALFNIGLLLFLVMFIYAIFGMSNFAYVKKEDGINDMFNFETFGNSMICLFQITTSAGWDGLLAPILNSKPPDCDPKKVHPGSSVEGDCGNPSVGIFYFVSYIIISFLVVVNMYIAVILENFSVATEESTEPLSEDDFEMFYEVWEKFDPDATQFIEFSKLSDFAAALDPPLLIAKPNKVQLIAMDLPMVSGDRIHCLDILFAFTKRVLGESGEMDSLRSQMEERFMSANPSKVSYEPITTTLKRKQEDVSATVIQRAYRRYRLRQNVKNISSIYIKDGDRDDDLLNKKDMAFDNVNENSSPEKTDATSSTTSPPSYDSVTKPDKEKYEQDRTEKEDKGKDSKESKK
Experiment Notes: Inhibition of human Nav 1.7 channel by voltage-ion-probe-reader
Numbers only, in nM.

Test Smiles | IC50 / nM
Cc1cc(C(N)=O)nn1-c1cccc(-c2ccccc2C(F)(F)F)c1 | 163
Cc1cc(C(N)=O)nn1-c1cc(-c2ccccc2OC(F)(F)F)ccc1F | 222
Cc1cc(C(N)=O)nn1-c1cccc(-c2cc(C(F)(F)F)ccc2C(F)(F)F)c1 | 272
Cc1cc(C(N)=O)nn1-c1cccc(-c2ccc(Cl)cc2C(F)(F)F)c1 | 243
Cc1cc(C(N)=O)nn1-c1cccc(-c2c(F)cccc2C(F)(F)F)c1 | 71

Return reported IC50 values for all items listed beneath this line.
1. Cc1cc(C(N)=O)nn1-c1cccc(-c2c(C(F)(F)F)cccc2C(F)(F)F)c1
2. Cc1cc(C(N)=O)nn1-c1cccc(-c2ccccc2OC(F)(F)F)c1
3. Cc1cc(C(N)=O)nn1-c1cccc(-c2ccccc2Oc2ccccc2)c1

Result string:
1. 41
2. 224
3. 875

Batch request: IC50 for each of the following molecules.
1. Cc1cc(C(N)=O)nn1-c1cccc(-c2cccc(F)c2C(F)(F)F)c1
2. Cc1cc(C(N)=O)nn1-c1ccc(F)c(-c2ccccc2OC(F)(F)F)c1

Result string:
1: 781; 2: 162
